target: MCH-5 (Homo sapiens); assay: Dissociation constant Ki and irreversible rate constant k3 for irreversible inhibitors (Mch5); type: biochemical; settings: continuous assay 60 min, reaction initiated by adding enzyme to substrate-inhibitor mixture
Sequence (Q14790 217-374 limits assumed, species assumed): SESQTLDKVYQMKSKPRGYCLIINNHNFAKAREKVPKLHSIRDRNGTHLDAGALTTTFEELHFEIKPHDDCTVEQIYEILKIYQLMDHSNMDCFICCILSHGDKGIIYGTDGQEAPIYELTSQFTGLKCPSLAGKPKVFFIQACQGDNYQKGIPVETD
Sequence (Q14790 385-479 limits assumed, species assumed): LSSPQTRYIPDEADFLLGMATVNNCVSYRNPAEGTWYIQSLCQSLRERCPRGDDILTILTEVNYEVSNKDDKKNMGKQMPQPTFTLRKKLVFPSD
pKi: −log10 of the molar value.
Returns one of class 1 or class 0; class 1 when pKi is >= 8.

Below, 5 compounds whose answers are already recorded.
CC(C)[C@H](NC(=O)C(=O)Nc1cccc2ccccc12)C(=O)N[C@@H](CC(=O)O)C(=O)COc1c(F)cc(F)cc1F = class 1
COc1ccccc1NC(=O)C(=O)N[C@H](C(=O)N[C@@H](CC(=O)O)C(=O)COc1c(F)c(F)cc(F)c1F)C(C)C = class 1
C[C@H](NC(=O)C(=O)Nc1ccc(F)cc1)C(=O)N[C@@H](CC(=O)O)C(=O)COC(=O)c1c(Cl)cccc1Cl = class 0
CC(C)[C@H](NC(=O)C(=O)Nc1cnccn1)C(=O)N[C@@H](CC(=O)O)C(=O)COc1c(F)c(F)cc(F)c1F = class 1
C[C@H](NC(=O)C(=O)NCc1ccccc1)C(=O)N[C@@H](CC(=O)O)C(=O)COc1c(F)c(F)cc(F)c1F = class 0

Incoming: Please tell me: is the compound C[C@H](NC(=O)C(=O)NCc1cccc2ccccc12)C(=O)N[C@@H](CC(=O)O)C(=O)COC(=O)c1c(Cl)cccc1Cl at or over 8 in terms of pKi?
Outgoing: class 1

Incoming: Please tell me: is the compound CC(C)[C@H](NC(=O)C(=O)Nc1nc2ccccc2[nH]1)C(=O)N[C@@H](CC(=O)O)C(=O)COc1c(F)c(F)cc(F)c1F at or over 8 in terms of pKi?
Outgoing: class 0

Incoming: Please tell me: is the compound C[C@H](NC(=O)C(=O)NCc1ccccc1)C(=O)N[C@@H](CC(=O)O)C(=O)COC(=O)c1c(Cl)cccc1Cl at or over 8 in terms of pKi?
Outgoing: class 0

Incoming: Please tell me: is the compound CC(C)[C@H](NC(=O)C(=O)NC1CCCc2ccccc21)C(=O)N[C@@H](CC(=O)O)C(=O)COc1c(F)c(F)cc(F)c1F (stereo partly shown) at or over 8 in terms of pKi?
Outgoing: class 1

Incoming: Please tell me: is the compound CC(C)[C@H](NC(=O)C(=O)Nc1ccccc1-c1ccccc1)C(=O)N[C@@H](CC(=O)O)C(=O)COc1c(F)c(F)cc(F)c1F at or over 8 in terms of pKi?
Outgoing: class 0

---

mICE k3/Ki overview
target: mICE (Mus musculus, UniProt P29452); test: Dissociation constant Ki and irreversible rate constant k3 for irreversible inhibitors (ICE); assay type: biochemical; details: continuous assay 60 min, reaction initiated by adding enzyme to substrate-inhibitor mixture
Sequence (P29452 123-296 limits assumed): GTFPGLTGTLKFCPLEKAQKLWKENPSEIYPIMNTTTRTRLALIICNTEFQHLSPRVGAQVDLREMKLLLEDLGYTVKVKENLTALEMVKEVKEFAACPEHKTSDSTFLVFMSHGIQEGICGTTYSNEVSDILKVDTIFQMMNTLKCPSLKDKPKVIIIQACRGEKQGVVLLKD
Sequence (P29452 315-402 limits assumed): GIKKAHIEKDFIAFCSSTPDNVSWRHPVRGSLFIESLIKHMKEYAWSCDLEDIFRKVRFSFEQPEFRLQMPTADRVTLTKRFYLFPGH

These solved cases illustrate the format of a correct answer.
CC(C)[C@H](NC(=O)C(=O)NCCc1ccccc1)C(=O)N[C@@H](CC(=O)O)C(=O)COc1c(F)c(F)cc(F)c1F = 77,100 moles^−1 seconds^−1
CC(C)[C@H](NC(=O)C(=O)Nc1cccc2ccccc12)C(=O)N[C@@H](CC(=O)O)C(=O)COc1cccc2ccccc12 = 254,000 moles^−1 seconds^−1

# mICE k3/Ki (molecule: CC(C)[C@H](NC(=O)C(=O)Nc1ccccc1Br)C(=O)N[C@@H](CC(=O)O)C(=O)COc1c(F)c(F)cc(F)c1F ) is 1,080,000 moles^−1 seconds^−1

# mICE k3/Ki (molecule: CC(C)[C@H](NC(=O)C(=O)NCc1ccccc1)C(=O)N[C@@H](CC(=O)O)C(=O)COc1c(F)c(F)cc(F)c1F ) is 1,800,000 moles^−1 seconds^−1

# mICE k3/Ki (molecule: C[C@H](NC(=O)C(=O)Nc1ccccc1-c1ccccc1)C(=O)N[C@@H](CC(=O)O)C(=O)COC(=O)c1c(Cl)cccc1Cl ) is 259,000 moles^−1 seconds^−1

# mICE k3/Ki (molecule: C[C@H](NC(=O)C(=O)NC1CCCCC1)C(=O)N[C@@H](CC(=O)O)C(=O)COP(=O)(c1ccccc1)c1ccccc1 ) is 2,032,000 moles^−1 seconds^−1

# mICE k3/Ki (molecule: C[C@H](NC(=O)C(=O)Nc1cccc2c1CCCC2)C(=O)N[C@@H](CC(=O)O)C(=O)COC(=O)c1c(Cl)cccc1Cl [Example 62] ) is 16,900 moles^−1 seconds^−1

# mICE k3/Ki (molecule: CC(C)[C@H](NC(=O)C(=O)Nc1c(F)c(F)nc(F)c1F)C(=O)N[C@@H](CC(=O)O)C(=O)COc1c(F)c(F)cc(F)c1F ) is 1,220,000 moles^−1 seconds^−1

# mICE k3/Ki (molecule: C[C@H](NC(=O)C(=O)Nc1ccccc1F)C(=O)N[C@@H](CC(=O)O)C(=O)COc1c(F)c(F)cc(F)c1F ) is 339,000 moles^−1 seconds^−1

# mICE k3/Ki (molecule: C[C@H](NC(=O)C(=O)Nc1cc(C(F)(F)F)ccc1N1CCOCC1)C(=O)N[C@@H](CC(=O)O)C(=O)COP(=O)(c1ccccc1)c1ccccc1 ) is 369,000 moles^−1 seconds^−1

# mICE k3/Ki (molecule: COc1ccccc1NC(=O)C(=O)N[C@H](C(=O)N[C@@H](CC(=O)O)C(=O)COc1c(F)c(F)cc(F)c1F)C(C)C ) is 2,068,000 moles^−1 seconds^−1

# mICE k3/Ki (molecule: C[C@H](NC(=O)C(=O)Nc1ccc(F)cc1)C(=O)N[C@@H](CC(=O)O)C(=O)COC(=O)c1c(Cl)cccc1Cl ) is 11,700 moles^−1 seconds^−1

# mICE k3/Ki (molecule: C[C@H](NC(=O)C(=O)NC1CCCCC1)C(=O)N[C@@H](CC(=O)O)C(=O)COC(=O)c1c(Cl)cccc1Cl ) is 2,020,000 moles^−1 seconds^−1

# mICE k3/Ki (molecule: C[C@H](NC(=O)C(=O)Nc1ccccc1Cl)C(=O)N[C@@H](CC(=O)O)C(=O)COC(=O)c1c(Cl)cccc1Cl [Example 58] ) is 278,000 moles^−1 seconds^−1

# mICE k3/Ki (molecule: C[C@H](NC(=O)C(=O)Nc1cccc2c1CCCC2)C(=O)N[C@@H](CC(=O)O)C(=O)COP(=O)(c1ccccc1)c1ccccc1 [Example 48] ) is 905,000 moles^−1 seconds^−1

# mICE k3/Ki (molecule: C[C@H](NC(=O)C(=O)NCCc1ccccc1)C(=O)N[C@@H](CC(=O)O)C(=O)COP(=O)(c1ccccc1)c1ccccc1 ) is 1,230,000 moles^−1 seconds^−1

# mICE k3/Ki (molecule: CC(C)[C@H](NC(=O)C(=O)NC12CC3CC(CC(C3)C1)C2)C(=O)N[C@@H](CC(=O)O)C(=O)COc1c(F)c(F)cc(F)c1F ) is 184,000 moles^−1 seconds^−1

# mICE k3/Ki (molecule: CC(C)[C@H](NC(=O)C(=O)Nc1cccc2ccccc12)C(=O)N[C@@H](CC(=O)O)C(=O)COc1c(-c2ccccc2)oc2ccccc2c1=O ) is 82,100 moles^−1 seconds^−1

# mICE k3/Ki (molecule: C[C@H](NC(=O)C(=O)NCc1cccc2ccccc12)C(=O)N[C@@H](CC(=O)O)C(=O)COc1c(F)c(F)cc(F)c1F ) is 2,590,000 moles^−1 seconds^−1

# mICE k3/Ki (molecule: C[C@H](NC(=O)C(=O)NCc1cccc2ccccc12)C(=O)N[C@@H](CC(=O)O)C(=O)COP(=O)(c1ccccc1)c1ccccc1 ) is 191,000 moles^−1 seconds^−1

---

Target: UniProt:P29452
Test: Fluorescence enzyme assay, determination of IC50 values (ICE)
Settings: recombinant enzyme, 30 min preincubation, substrate Acetyl-Tyr-Val-Ala-Asp-AMC, room temperature
Description: Fluorescence enzyme assays detecting the activity of the compounds of Formula I utilizing the recombinant ICE and CPP32 enzymes are performed essentially according to Thornberry et al. (Nature, 356:768:774 (1992)) and Nicholson et al. (Nature, 376:37–43 (1995)) respectively, (herein incorporated by reference) in 96 well microtiter plates. […]
Where a SMILES comes first, the peptide text is derived from it. The star is where a group is joined. Cbz = O=C(OCc1ccccc1)*
IC50 overview
Write it as a number; the unit nM goes unstated.

CC(C)C[C@H](NC(=O)C(=O)Nc1cccc2ccccc12)C(=O)N[C@H](C=O)CC(=O)O [Example 1] = 27

Query compound follows.
# IC50 (compound: CC(C)[C@H](NC(=O)OCc1ccccc1)C(=O)N[C@@H](C)C(=O)N[C@H](C=O)CC(=O)O [reference, Cbz-ValAlaAsp-H, reference compound] (Cbz-Val-Ala-Asp-aldehyde) ) is 64

---

biological target: UniProt:Q14790; experiment: Dissociation constant Ki and irreversible rate constant k3 for irreversible inhibitors (Mch5); type: biochemical; conditions: continuous assay 60 min, reaction initiated by adding enzyme to substrate-inhibitor mixture
recordedMetric: pKi
Units for pKi: none; it is -log10 of a concentration expressed in mol/L.

CC(C)[C@H](NC(=O)C(=O)Nc1cccc2ccccc12)C(=O)N[C@@H](CC(=O)O)C(=O)COP(=O)(c1ccccc1)c1ccccc1 = 8.89
CC(C)[C@H](NC(=O)C(=O)Nc1ccccc1C(F)(F)F)C(=O)N[C@@H](CC(=O)O)C(=O)COc1c(F)c(F)cc(F)c1F = 8.22

# pKi (molecule: CC(C)[C@H](NC(=O)C(=O)Nc1c(F)cccc1F)C(=O)N[C@@H](CC(=O)O)C(=O)COc1c(F)c(F)cc(F)c1F ) is 8.72
